# credit: PubChem BioAssay

Experiment: probe aNOTCH2 binding on compound microarray – biochemical, small-molecule microarray, 635/667 nm fluorescence, primary screen (AID 1121);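 further: score merges feature fluorescence read at 667 nm with its signal to noise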
Conditions: higher = more signal
Dear colleague, classification is by composite z-score, with ranges listed here: lower bin: < -0.1; middle bin: ≥ -0.1 and < 0.02; upper bin: ≥ 0.02

INPUT: Category lookup for the compound C=CCC(OC(C)=O)[C@@H]1[C@@H](N(Cc2cccc3ccccc23)C(=O)Cc2ccc(OC)cc2)c2cc(OCCCO)ccc2N1C(=O)c1ccc(-c2ccccc2)cc1 (some centres undefined)
OUTPUT: middle bin

INPUT: Category lookup for the compound CC(CO)N1C(=O)[C@]2(C)C3C(=O)OCCC/C=C\[C@H]3OC23C=CCN(c2ccc(Cl)cc2)C(=O)[C@@H]13 (some centres undefined)
OUTPUT: lower bin

INPUT: Category lookup for the compound `COc1ccc(C#Cc2ccc3c(c2)[C@]2(C(=O)N3)[C@H](c3ccc(O)cc3)N3[C@H](c4ccccc4)[C@H](c4ccccc4)OC(=O)[C@H]3[C@@H]2C(=O)Nc2nc3ccccc3s2)cc1`
OUTPUT: upper bin

INPUT: Category lookup for the compound `Cc1ccc(S[C@]2(C(=O)NCCN3CCOCC3)CC(=O)N(Cc3ccccc3Cl)[C@@H]2c2ccc(CO)cc2I)cc1`
OUTPUT: upper bin

INPUT: Category lookup for the compound `CO[C@H]1O[C@H](CO)[C@@H](OC(=O)Nc2ccc3c(c2)OCO3)[C@H](OC(=O)Nc2ccc3c(c2)OCO3)[C@@H]1OC(=O)Nc1ccc2c(c1)OCO2`
OUTPUT: middle bin

INPUT: Category lookup for the compound `COCCCNC(=O)[C@@H]1c2ccccc2C(=O)N(C(C)C)[C@H]1c1ccc(CO)cc1`
OUTPUT: lower bin

INPUT: Category lookup for the compound CCCCCC1=C2CNC(C)(C(=O)OC)C=C2C(C)C1=O (centres undefined)
OUTPUT: upper bin

INPUT: Category lookup for the compound `COCCOC(=O)N1C(=O)[C@@]2(c3cc(C#CC4(O)CCCCCC4)ccc31)[C@H](C(=O)N1CCc3cc(OC)c(OC)cc3C1)[C@H]1C(=O)O[C@H](c3ccccc3)[C@H](c3ccccc3)N1[C@@H]2c1ccc(OCCO)cc1`
OUTPUT: middle bin

INPUT: Category lookup for the compound `COC(=O)[C@@]1(Cc2ccccc2)[C@H]2c3cc(C(=O)N(C)C)n(Cc4ccc(C)o4)c3C[C@H]2CN1C(=O)c1ccccc1`
OUTPUT: upper bin

INPUT: Category lookup for the compound CCCCCCCCCCC(O)C1C=CC2C(=O)N(c3ccccc3)C(=O)C2N1Nc1ccc(C#N)cc1 (centres undefined)
OUTPUT: middle bin

INPUT: Category lookup for the compound `CCCNC(=O)[C@@]1(C)c2ccccc2C(=O)N(c2ccc(C)cn2)[C@H]1c1ccc(CO)cc1`
OUTPUT: lower bin

INPUT: Category lookup for the compound `O[C@@H](Cc1ccccc1)[C@@H](/C=C/C1CC1)N(CC#Cc1ccccc1)Cc1ccccc1Br`
OUTPUT: lower bin

---

Experiment: JC-1 mitochondrial signal, unstimulated myeloma cells – cell-based, JC-1 fluorescence, RPMI8226, 24 h, 100 nL compound, profiling panel (AID 1169); further: test concentration not given here
Details: JC-1 mitochondrial potential fluorescence, higher = more signal
Assign Fulfilled whenever z-score does not fall below -0.8; assign Not fulfilled whenever it does.

INPUT: API: above_or_equal(metric=z-score, cutoff=-0.8) for item C=CCC(OC(C)=O)[C@@H]1[C@@H](N(Cc2cccc3ccccc23)C(=O)Cc2ccc(OC)cc2)c2cc(OCCCO)ccc2N1C(=O)c1ccc(-c2ccccc2)cc1 (stereo not given in full)
OUTPUT: Fulfilled

INPUT: API: above_or_equal(metric=z-score, cutoff=-0.8) for item `Cc1ccc(S[C@]2(C(=O)NCC(F)(F)F)CC(=O)N(Cc3cc(C(F)(F)F)cc(C(F)(F)F)c3)[C@@H]2c2ccc(CO)cc2I)cc1`
OUTPUT: Fulfilled

INPUT: API: above_or_equal(metric=z-score, cutoff=-0.8) for item C=CCC(OC(C)=O)[C@@H]1[C@@H](N(Cc2cccc3ccccc23)C(=O)Cc2ccc(F)cc2)c2cc(OCCCO)ccc2N1C(=O)c1ccc2ccccc2c1 (stereo not given in full)
OUTPUT: Fulfilled

INPUT: API: above_or_equal(metric=z-score, cutoff=-0.8) for item `CCCC=C(CCC)[C@@H](NP(=O)(c1ccccc1)c1ccccc1)c1ccc(-c2ccccc2)cc1`
OUTPUT: Fulfilled

INPUT: API: above_or_equal(metric=z-score, cutoff=-0.8) for item `COC(=O)[C@]1(CCS(=O)(=O)c2ccccc2)N=C(c2ccc(OCCCO)cc2)O[C@@H]1c1ccccc1N=[N+]=[N-]`
OUTPUT: Not fulfilled

INPUT: API: above_or_equal(metric=z-score, cutoff=-0.8) for item CC(=O)N1CC2(CC2)CC1c1ccccc1 (stereo not given)
OUTPUT: Fulfilled

INPUT: API: above_or_equal(metric=z-score, cutoff=-0.8) for item COc1cc(C(O)C2C=CC3C(=O)N(C)C(=O)C3N2Nc2ccccc2)cc(OC)c1OC (stereo not given)
OUTPUT: Fulfilled

INPUT: API: above_or_equal(metric=z-score, cutoff=-0.8) for item `COC(=O)[C@@]1(Cc2ccc(OC)cc2)[C@H]2c3cc(C(=O)N(C)C)n(Cc4ccc(C)o4)c3C[C@H]2CN1C(=O)c1ccccc1`
OUTPUT: Not fulfilled

INPUT: API: above_or_equal(metric=z-score, cutoff=-0.8) for item COC(=O)C1=CC(CCCO)=CC(c2cccs2)N(C)C=C1C(=O)OC (stereo not given)
OUTPUT: Fulfilled

INPUT: API: above_or_equal(metric=z-score, cutoff=-0.8) for item `COc1ccc([Si](C)(C)[C@@H]2[C@@H](CC(=O)N3Cc4ccccc4C[C@H]3CO)O[C@]3(C(=O)N(Cc4ccc(N5C(=O)c6cccc7cccc5c67)cc4)c4ccccc43)[C@H]2C)cc1`
OUTPUT: Fulfilled

INPUT: API: above_or_equal(metric=z-score, cutoff=-0.8) for item `CCOC(=O)C[C@H]1[C@H](OC(=O)Cc2ccc3c(c2)OCO3)[C@@H](NC(=O)c2ccc3ccccc3n2)c2cc(OCCCO)ccc2N1C(=O)c1ccccc1`
OUTPUT: Fulfilled

INPUT: API: above_or_equal(metric=z-score, cutoff=-0.8) for item `CCCN1C(=O)[C@]2(Cc3ccccc31)N=C(c1ccc(OCCCO)cc1)O[C@@H]2c1ccccc1`
OUTPUT: Not fulfilled

INPUT: API: above_or_equal(metric=z-score, cutoff=-0.8) for item Cc1ccc(NN2C(C(O)c3c(F)cccc3Cl)C=CC3C(=O)N(C4CCCCC4)C(=O)C32)cc1 (stereo not given)
OUTPUT: Fulfilled

INPUT: API: above_or_equal(metric=z-score, cutoff=-0.8) for item `CCCC#C[Si](O[C@H](CC)c1cn([C@H](C)c2ccccc2)nn1)(C(C)C)C(C)C`
OUTPUT: Fulfilled
